# Vmax listing for each entry below
- Assayed system: UniProtKB P31641
- Sequence (P31641 1-620): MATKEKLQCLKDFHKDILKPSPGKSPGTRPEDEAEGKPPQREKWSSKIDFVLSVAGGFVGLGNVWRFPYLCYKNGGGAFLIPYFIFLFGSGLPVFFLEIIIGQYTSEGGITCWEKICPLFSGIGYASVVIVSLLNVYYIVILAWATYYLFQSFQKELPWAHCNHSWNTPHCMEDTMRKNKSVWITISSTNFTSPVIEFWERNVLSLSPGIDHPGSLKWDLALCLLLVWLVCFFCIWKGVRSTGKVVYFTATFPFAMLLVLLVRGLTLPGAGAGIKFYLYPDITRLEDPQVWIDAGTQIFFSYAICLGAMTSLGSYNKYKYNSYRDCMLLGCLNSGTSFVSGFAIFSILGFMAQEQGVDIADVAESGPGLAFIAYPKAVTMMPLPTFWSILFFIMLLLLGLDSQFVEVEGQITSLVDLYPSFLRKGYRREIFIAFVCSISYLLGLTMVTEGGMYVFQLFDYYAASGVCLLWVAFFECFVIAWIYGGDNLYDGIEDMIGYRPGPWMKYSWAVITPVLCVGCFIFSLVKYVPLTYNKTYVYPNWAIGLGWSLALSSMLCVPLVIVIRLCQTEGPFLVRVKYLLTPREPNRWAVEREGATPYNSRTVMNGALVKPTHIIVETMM
- Assay name: hTAUT1 direct uptake assay in HEK-TREx-TAUT1 cells (LC-MS-MS)
- Format: cell-based
- Set-up: expressed in transfected cells; host or cells: HEK-TREx cells (HEK-TREx-TAUT1 inducible line)
- Recorded conditions: direct uptake into HEK-TREx-TAUT1 cells, +TET minus no TET; 15 min, room temperature
- Procedure: A modified direct uptake assay was developed to determine the ability of test compounds to be transported into HEK-TREx cells induced to over-express hTAUT. Four concentrations (bracketing the affinity as measured by competition assays) per compound were routinely tested. Non-specific uptake was determined by measuring the uptake into cells not induced to express the transporter (“no tet”). Typically, four concentrations bracketing the IC50 were tested. […]
Only the number, expressed in μM/well, is required.

Below, each entry is followed by its recorded Vmax result.
- Molecule: "N=C(N)NCCC(=O)O"
  Vmax (μM/well): 6.4
- Molecule: "O=C(O)Cc1c[nH]cn1"
  Vmax (μM/well): 6.1
- Molecule: "NCC(CC(=O)O)c1ccc(Cl)cc1 (stereo not shown)"
  Vmax (μM/well): 5.4

We next turn to a different molecule, shown below.
Q: Consider the molecule NCCCC(=O)O and give its measured Vmax.
A: 12
